- procedureDetails: Antiproliferative activity against human PANC1 cells after 72 hrs by MTT assay
- Type: functional, cell-based
- details: PANC-1, 72 h
property: IC50 (µM)
Report only the number, with the unit µM understood.

Reference set, count: 5
[
  {
    "compound": "COc1cc2/c(=N/c3ccc(Br)cc3F)nc[nH]c2cc1OCC1CCN(C)CC1 [VANDETANIB]",
    "property": "IC50",
    "unitOfMeasure": "µM",
    "observedValue": 4.11
  },
  {
    "compound": "Nc1ccc(OCCCOc2no[n+]([O-])c2S(=O)(=O)c2ccccc2)c(C(=O)Oc2ccc(-c3cc(=S)ss3)cc2)c1",
    "property": "IC50",
    "unitOfMeasure": "µM",
    "observedValue": 0.971
  },
  {
    "compound": "CC(C)(C)OC(=O)Nc1ccc(OCCCOc2no[n+]([O-])c2S(=O)(=O)c2ccccc2)c(C(=O)Oc2ccc(-c3cc(=S)ss3)cc2)c1",
    "property": "IC50",
    "unitOfMeasure": "µM",
    "observedValue": 3.02
  },
  {
    "compound": "Nc1ccc(OCCOCCOc2no[n+]([O-])c2S(=O)(=O)c2ccccc2)c(C(=O)Oc2ccc(-c3cc(=S)ss3)cc2)c1",
    "property": "IC50",
    "unitOfMeasure": "µM",
    "observedValue": 8
  },
  {
    "compound": "Nc1ccc(OCCOc2no[n+]([O-])c2S(=O)(=O)c2ccccc2)c(C(=O)Oc2ccc(-c3cc(=S)ss3)cc2)c1",
    "property": "IC50",
    "unitOfMeasure": "µM",
    "observedValue": 1.86
  }
]

Ask: For the compound `CC(C)(C)OC(=O)Nc1ccc(OCCOCCOc2no[n+]([O-])c2S(=O)(=O)c2ccccc2)c(C(=O)Oc2ccc(-c3cc(=S)ss3)cc2)c1` , report IC50.
Result: 2.8

Ask: Entry `CC(C)(C)OC(=O)Nc1ccc(OCCOc2no[n+]([O-])c2S(=O)(=O)c2ccccc2)c(C(=O)Oc2ccc(-c3cc(=S)ss3)cc2)c1` needs its IC50 filled in; supply it.
Result: 1.45

###

- procedureDetails: Antiproliferative activity against human PANC1 cells at 30 uM after 72 hrs by MTT assay
- Assay type: functional
- details: PANC-1, 72 h
true means recorded inhibition at 30 µM is -10% or above; false means it is below -10%.

Ask: Check this compound for inhibition at 30 µM at or above -10%: `O=C(Nc1cccc(Cl)c1)Nc1ccc(OC(=O)CCCO[N+](=O)[O-])c(C(=O)Oc2ccc(-c3cc(=S)ss3)cc2)c1`
Result: false

Ask: In plain terms: is recorded inhibition at 30 µM at least -10% for `O=C(Nc1ccc(F)cc1)Nc1ccc(OC(=O)CCCO[N+](=O)[O-])c(C(=O)Oc2ccc(-c3cc(=S)ss3)cc2)c1` ?
Result: false

Ask: Say whether `COc1ccc(NC(=O)Nc2ccc(OC(=O)CCCO[N+](=O)[O-])c(C(=O)Oc3ccc(-c4cc(=S)ss4)cc3)c2)cc1` shows inhibition at 30 µM of -10% or more.
Result: true

###

Recorded measurements of inhibition at 30 µM, one per entry
- procedureDetails: Antiproliferative activity against human DU145 cells at 30 uM after 72 hrs by MTT assay
- Assay type: functional
- details: DU-145, 72 h
All answers are understood in %, so give the number only.

[
  {
    "compound": "CC(C)(C)OC(=O)Nc1ccc(OCCCOc2no[n+]([O-])c2S(=O)(=O)c2ccccc2)c(C(=O)Oc2ccc(-c3cc(=S)ss3)cc2)c1",
    "unitOfMeasure": "%",
    "inhibition at 30 µM": 67.9
  },
  {
    "compound": "Nc1ccc(OC(=O)CCCO[N+](=O)[O-])c(C(=O)Oc2ccc(-c3cc(=S)ss3)cc2)c1",
    "unitOfMeasure": "%",
    "inhibition at 30 µM": -7.67
  },
  {
    "compound": "Nc1ccc(OCCOCCOc2no[n+]([O-])c2S(=O)(=O)c2ccccc2)c(C(=O)Oc2ccc(-c3cc(=S)ss3)cc2)c1",
    "unitOfMeasure": "%",
    "inhibition at 30 µM": 63.2
  },
  {
    "compound": "COc1ccc(NC(=O)Nc2ccc(OC(=O)CCCO[N+](=O)[O-])c(C(=O)Oc3ccc(-c4cc(=S)ss4)cc3)c2)cc1",
    "unitOfMeasure": "%",
    "inhibition at 30 µM": -6.39
  },
  {
    "compound": "CC(C)(C)OC(=O)Nc1ccc(OCCOCCOc2no[n+]([O-])c2S(=O)(=O)c2ccccc2)c(C(=O)Oc2ccc(-c3cc(=S)ss3)cc2)c1",
    "unitOfMeasure": "%",
    "inhibition at 30 µM": 54.7
  }
]

Note: attention shifts to another entry.
Ask: Dear colleague, please send me the reported inhibition at 30 µM for `Cc1cccc(NC(=O)Nc2ccc(OC(=O)CCCO[N+](=O)[O-])c(C(=O)Oc3ccc(-c4cc(=S)ss4)cc3)c2)c1` when you can.
Result: -19.3

###

- procedureDetails: Antiproliferative activity against human DU145 cells at 30 uM after 72 hrs by MTT assay
- Type: functional
- details: DU-145, 72 h
Respond with rule met for inhibition at 30 µM values of 20% and above, rule not met for values below.

Reference set (6 entries):
[
  {
    "compound": "O=C(Nc1cccc(Cl)c1)Nc1ccc(OC(=O)CCCO[N+](=O)[O-])c(C(=O)Oc2ccc(-c3cc(=S)ss3)cc2)c1",
    "discreteLabel": "rule not met"
  },
  {
    "compound": "Nc1ccc(OCCOc2no[n+]([O-])c2S(=O)(=O)c2ccccc2)c(C(=O)Oc2ccc(-c3cc(=S)ss3)cc2)c1",
    "discreteLabel": "rule met"
  },
  {
    "compound": "Nc1ccc(OCCCOc2no[n+]([O-])c2S(=O)(=O)c2ccccc2)c(C(=O)Oc2ccc(-c3cc(=S)ss3)cc2)c1",
    "discreteLabel": "rule met"
  },
  {
    "compound": "O=C(Nc1ccc(OC(=O)CCCO[N+](=O)[O-])c(C(=O)Oc2ccc(-c3cc(=S)ss3)cc2)c1)Nc1ccc(F)cc1F",
    "discreteLabel": "rule not met"
  },
  {
    "compound": "O=C(Nc1ccc(F)cc1)Nc1ccc(OC(=O)CCCO[N+](=O)[O-])c(C(=O)Oc2ccc(-c3cc(=S)ss3)cc2)c1",
    "discreteLabel": "rule not met"
  },
  {
    "compound": "O=C(Nc1cccc(C(F)(F)F)c1)Nc1ccc(OC(=O)CCCO[N+](=O)[O-])c(C(=O)Oc2ccc(-c3cc(=S)ss3)cc2)c1",
    "discreteLabel": "rule not met"
  }
]

Kindly consider the entry below.
Ask: hey, is inhibition at 30 µM for this one >= 20%? `CC(C)(C)OC(=O)Nc1ccc(OCCOc2no[n+]([O-])c2S(=O)(=O)c2ccccc2)c(C(=O)Oc2ccc(-c3cc(=S)ss3)cc2)c1`
Result: rule met

###

- Tested on: MCF7
- procedureDetails: Antiproliferative activity against human MCF7 cells after 72 hrs by MTT assay
- Type: functional, cell-based
- details: MCF7, 72 h
The following compounds are listed with their measured IC50 values.
Please provide the amount together with its unit, number first.

Ask: Would you please give the reported IC50 of `Nc1ccc(OCCCOc2no[n+]([O-])c2S(=O)(=O)c2ccccc2)c(C(=O)Oc2ccc(-c3cc(=S)ss3)cc2)c1` with MCF7?
Result: 3.05 µM

Ask: // output IC50; input `Nc1ccc(OCCOCCOc2no[n+]([O-])c2S(=O)(=O)c2ccccc2)c(C(=O)Oc2ccc(-c3cc(=S)ss3)cc2)c1` ; system MCF7
Result: 11.9 µM

Ask: GET IC50 where system = MCF7 and item = `Nc1ccc(OCCOc2no[n+]([O-])c2S(=O)(=O)c2ccccc2)c(C(=O)Oc2ccc(-c3cc(=S)ss3)cc2)c1`
Result: 2.68 µM

Ask: Give IC50 only, for COc1cc2/c(=N/c3ccc(Br)cc3F)nc[nH]c2cc1OCC1CCN(C)CC1 [VANDETANIB] , using MCF7 data.
Result: 3.54 µM

###

- Tested on: MCF7
- procedureDetails: Antiproliferative activity against human MCF7 cells at 30 uM after 72 hrs by MTT assay
- Type: functional
- details: MCF7, 72 h
Consider the following compounds and their measured inhibition at 30 µM readings.
In your response, put the unit directly after the numeric value.

[
  {
    "compound": "Nc1ccc(OCCOCCOc2no[n+]([O-])c2S(=O)(=O)c2ccccc2)c(C(=O)Oc2ccc(-c3cc(=S)ss3)cc2)c1",
    "inhibition at 30 µM": "90%"
  },
  {
    "compound": "COc1ccc(NC(=O)Nc2ccc(OC(=O)CCCO[N+](=O)[O-])c(C(=O)Oc3ccc(-c4cc(=S)ss4)cc3)c2)cc1",
    "inhibition at 30 µM": "16%"
  }
]

Let's switch to this compound now.
Ask: Identify measured inhibition at 30 µM obtained with MCF7 for `Nc1ccc(OCCOc2no[n+]([O-])c2S(=O)(=O)c2ccccc2)c(C(=O)Oc2ccc(-c3cc(=S)ss3)cc2)c1` .
Result: 90.1%

Attribution: ChEMBL document CHEMBL3792336
